assay comment: In vitro potency against TNF alpha induced expression of intercellular adhesion molecule-1 on human vascular endothelial cells using CAM ELISA assay
Let's look at some compounds and their measured pIC50.
Just so you know, pIC50 here is -log10 of the concentration in molar units; reply with that number alone.

| smiles data | pIC50 |
| --- | --- |
| NC(=O)c1cc2c(Sc3ccc(Cl)c(Cl)c3)cncc2s1 | 7.43 |
| NC(=O)c1cc2c(Sc3ccccn3)cncc2s1 | 5.64 |
| CCc1cc2c(Sc3nnc(N)s3)ncnc2s1 | 5.20 |
| Cc1occc1Sc1cncc2sc(C(N)=O)cc12 | 6.24 |

# evaluate next
Problem: Name the recorded pIC50 for NC(=O)c1cc2c(Sc3ccc(C(F)(F)F)cc3)cncc2s1 .
Result: 7.41
